The origin of these recorded values is PubChem BioAssay AID1963866.

compounds and their reported viability, T/C
Tested on: PDC KRAS tumor spheroids with HUVEC/MSC, viability
Experiment summary: Anticancer human tumor 349418-098-R-PDC patient-derived lung adenocarcinoma cell line growth inhibition [KRAS2]
Experimental conditions: second compound 0.316 µM; first compound 0.0316 µM; stronger effect = lower value
Source text: Multicellular complex tumor spheroid response to RAS pathway inhibitors in combination with a targeted agents in patient-derived cell lines with oncogenic KRAS variants from multiple cancer types A high-throughput screen of multi-cell type tumor spheroids was designed to identify active combinations of targeted small molecules and KRAS pathway inhibitors. […] Compounds. […] If the clinical Cmax for an agent had not been determined, the highest concentration tested was 10 microM. […]
API: value field is a number in %; no unit string.

Solved cases below.
{"Compound": "COc1cc2nccc(Oc3ccc(NC(=O)C4(C(=O)Nc5ccc(F)cc5)CC4)cc3)c2cc1OC + CC1OCC2(CCN(c3cnc(Sc4ccnc(N)c4Cl)c(N)n3)CC2)C1N", "viability, T/C, %": 108}
{"Compound": "COc1cc2nccc(Oc3ccc(NC(=O)C4(C(=O)Nc5ccc(F)cc5)CC4)cc3)c2cc1OC + C=CC(=O)N1CCN(c2nc(=O)n(-c3c(C)ccnc3C(C)C)c3nc(-c4c(O)cccc4F)c(F)cc23)C(C)C1", "viability, T/C, %": 93.2}
{"Compound": "Cn1nccc1Nc1nccc(-c2cc3c(s2)C(C)(C)N(CCN2CCOCC2)C3=O)n1 + CC1OCC2(CCN(c3cnc(Sc4ccnc(N)c4Cl)c(N)n3)CC2)C1N", "viability, T/C, %": 61.4}
{"Compound": "CCN1CCN(Cc2ccc(Nc3ncc(F)c(-c4cc(F)c5nc(C)n(C(C)C)c5c4)n3)nc2)CC1 + C=CC(=O)N1CCN(c2nc(=O)n(-c3c(C)ccnc3C(C)C)c3nc(-c4c(O)cccc4F)c(F)cc23)C(C)C1", "viability, T/C, %": 20.9}
{"Compound": "O=C(c1cc(Cc2n[nH]c(=O)c3ccccc23)ccc1F)N1CCN(C(=O)C2CC2)CC1 + COc1cc2nc(C)nc(NC(C)c3cc(N)cc(C(F)(F)F)c3)c2cc1OC1CCOC1", "viability, T/C, %": 92.7}
{"Compound": "CN(C)C/C=C/C(=O)Nc1cc2c(Nc3ccc(F)c(Cl)c3)ncnc2cc1O[C@H]1CCOC1 + CC1OCC2(CCN(c3cnc(Sc4ccnc(N)c4Cl)c(N)n3)CC2)C1N", "viability, T/C, %": 117}

Proceed to the following item.
# input Supply recorded viability, T/C for CC1COCCN1c1cc(-c2ccnn2C)c2ccnc(-c3ccn[nH]3)c2n1 (configuration not stated) + CNCc1ccccc1-c1csc(C(C)Nc2nc(C)nc3cc(OC)c(OC)cc23)c1 here.
# output 47.1

* * *

Test system: PDC KRAS tumor spheroids with HUVEC/MSC, viability
Experiment summary: Anticancer human tumor 349418-098-R-PDC cell line growth inhibition [KRAS2];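 note: spheroids exposed to compounds for seven days before readout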
Experimental conditions: curve of compound
Attribute measured: IC50

Solved cases below.
{"Compound": "COc1cc(OC)cc(N(CCNC(C)C)c2ccc3ncc(-c4cnn(C)c4)nc3c2)c1", "Attribute measured": "IC50", "Value reported": "2.53 µM [middle of 4 runs]"}
{"Compound": "CC(C)NCC(C(=O)N1CCN(c2ncnc3c2C(C)CC3O)CC1)c1ccc(Cl)cc1 (stereo unspecified)", "Attribute measured": "IC50", "Value reported": "334 nM [middle of 5 runs]"}
{"Compound": "COc1cc2nccc(Oc3ccc(NC(=O)C4(C(=O)Nc5ccc(F)cc5)CC4)cc3)c2cc1OC", "Attribute measured": "IC50", "Value reported": "1.76 µM [middle of 5 runs]"}
{"Compound": "CC(=O)OC12COC1CC(O)C1(C)C(=O)C(O)C3=C(C)C(OC(=O)C(O)C(NC(=O)OC(C)(C)C)c4ccccc4)CC(O)(C(OC(=O)c4ccccc4)C21)C3(C)C (stereo unspecified)", "Attribute measured": "IC50", "Value reported": "< 10 nM"}
{"Compound": "CC1(C)CCC(CN2CCN(c3ccc(C(=O)NS(=O)(=O)c4ccc(NCC5CCOCC5)c([N+](=O)[O-])c4)c(Oc4cnc5[nH]ccc5c4)c3)CC2)=C(c2ccc(Cl)cc2)C1", "Attribute measured": "IC50", "Value reported": "1.89 µM [middle of 5 runs]"}
{"Compound": "Cn1nccc1Nc1nccc(-c2cc3c(s2)C(C)(C)N(CCN2CCOCC2)C3=O)n1", "Attribute measured": "IC50", "Value reported": "52.2 nM [middle of 5 runs]"}
{"Compound": "CC(=O)Nc1cccc(-n2c(=O)n(C3CC3)c(=O)c3c(Nc4ccc(I)cc4F)n(C)c(=O)c(C)c32)c1", "Attribute measured": "IC50", "Value reported": "< 0.1 nM"}
{"Compound": "CC(C)n1nc(-c2ccc3oc(N)nc3c2)c2c(N)ncnc21", "Attribute measured": "IC50", "Value reported": "0.92 nM [middle of 5 runs]"}

# input Provide IC50, system PDC KRAS tumor spheroids with HUVEC/MSC, viability, entry CCNC(=O)CC1N=C(c2ccc(Cl)cc2)c2cc(OC)ccc2-n2c(C)nnc21 (stereo unspecified)
# output 138 nM [middle of 5 runs]

# input Provide IC50, system PDC KRAS tumor spheroids with HUVEC/MSC, viability, entry `CN(C)C/C=C/C(=O)Nc1cc2c(Nc3ccc(F)c(Cl)c3)ncnc2cc1O[C@H]1CCOC1`
# output > 100 nM

# input Provide IC50, system PDC KRAS tumor spheroids with HUVEC/MSC, viability, entry `Cn1ncnc1[C@H]1c2n[nH]c(=O)c3cc(F)cc(c23)N[C@@H]1c1ccc(F)cc1`
# output > 100 nM
